# Tested On: human MAO-B (Homo sapiens)
# Construct: purchased Sigma-Aldrich (Dorset, UK); host or cells: insect cells (membranes)
# Sequence (P27338 whole entry): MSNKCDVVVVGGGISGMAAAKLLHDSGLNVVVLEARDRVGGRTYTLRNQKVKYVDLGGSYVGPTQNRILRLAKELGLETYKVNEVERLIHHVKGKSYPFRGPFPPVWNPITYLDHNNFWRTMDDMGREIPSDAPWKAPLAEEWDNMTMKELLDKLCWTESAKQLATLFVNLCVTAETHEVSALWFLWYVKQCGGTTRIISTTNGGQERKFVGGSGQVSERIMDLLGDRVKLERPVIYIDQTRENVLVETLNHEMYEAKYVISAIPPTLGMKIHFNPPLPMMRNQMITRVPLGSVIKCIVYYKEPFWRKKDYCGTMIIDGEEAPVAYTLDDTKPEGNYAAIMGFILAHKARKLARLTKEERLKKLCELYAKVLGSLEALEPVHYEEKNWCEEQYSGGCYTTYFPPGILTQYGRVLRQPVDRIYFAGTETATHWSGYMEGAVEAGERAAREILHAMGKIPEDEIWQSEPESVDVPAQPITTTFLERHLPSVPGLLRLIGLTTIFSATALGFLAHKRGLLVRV
# Type: biochemical
# Condition Info: without preincubation, tyramine 2× KM (0.32 mM); mean ± SD of 2–4 experiments; read-out: MAO-B IC50 AR Assay

>  <Molecule>
C#CCN(C)Cc1cc2cc(OCCCC3CCN(Cc4ccccc4)CC3)ccc2n1C [ASS234]

>  <IC50>
3.2 µM

$$$$

Taken from paper PMC7763263.
